- Test system: NCI-H460
- Test details: NCI tumour cell line growth inhibition, 48 h
Activity calls are given as the source filed them. Rule as the data show it: active = GI50 up to about 1.1 µM and inactive = higher. Square brackets hold non-standard residues; d marks the D form. Peptide text beside a SMILES is read from it. pGlu = O=C1CC[C@@H](C(=O)O)N1; Thz = O=C(O)[C@@H]1CSCN1
Quantity name: GI50

Before answering, review these 8 worked examples.
1) O=C1CC[C@@H](C(=O)N2CSC[C@H]2C(=O)O)N1 [PIDOTIMOD] ([pGlu]-[Thz]-OH); > 100 µM (inactive)
2) Clc1cc(OCC23CC4CC(CC(C4)C2)C3)nc(OCC23CC4CC(CC(C4)C2)C3)n1; > 100 µM (inactive)
3) CCOc1ccc(NC(=O)CC2C(=O)Nc3ccccc3S2(=O)=O)cc1 (centres undefined); > 100 µM (inactive)
4) O=c1nc(NC(c2ccccc2)(c2ccccc2)c2ccccc2)ccn1CCCl; 19.3 µM (inactive)
5) O=C(NNC(=O)c1ccccc1SSc1ccccc1C(=O)NNC(=O)c1ccccc1S)c1ccccc1S; 10.4 µM (inactive)
6) COc1ccc(CCn2cncn2)cc1; > 100 µM (inactive)
7) C[C@]12OC(=O)[C@]3(O)CC[C@H]4[C@@H](C[C@@H](O)[C@@]5(Cl)CC=CC(=O)[C@]45C)[C@]45OCC6C(=O)O[C@@H]1C[C@@]6(C)[C@H](C4=O)[C@@]32O5 (some centres undefined); 1.89 µM (inactive)
8) COC(=O)[C@H](Cc1ccccc1)NC(=O)N(CCNC(=O)OC(C)(C)C)c1ccccc1; > 100 µM (inactive)

Let us move to another entry and its GI50.
Entry COc1ccc(/C=C2/S/C(=N\c3ccccc3)N(NC(=O)Cc3ccccc3)C2=O)cc1 , GI50 reported as > 100 µM (inactive)

###

- Tested on: PC-3
- Test details: NCI tumour cell line growth inhibition, 48 h
The source made the active and inactive calls. Rule as the data show it: active = GI50 up to about 1.1 µM and inactive = higher.
Outcome field: choose from active, inactive

For orientation, consider the following solved cases.
1) COc1cc(/C=C/c2ccc(/C=C/c3cc(OC)c(OC)c(OC)c3)cc2)cc(OC)c1OC; inactive
2) COc1cc2c(c(OC)c1OC)C(=O)c1c(O)cc(C)c(OC)c1C2=O; inactive
3) N#Cc1c(N)nc2[nH]nc(N)c2c1-c1ccc(Cl)cc1; inactive
4) CC1(C)CCC[C@@]2(C)C1CC[C@@]1(CO)O[C@H](C3=CC(=O)OC3O)C[C@H]12 (some centres not stated); inactive
5) O=C(O)C1CC(c2ccccc2)=NN1c1ccccc1 (configuration not stated); inactive

Per the records of this test, what outcome belongs to COc1cc(C2c3cc4c(cc3OC(NN)C2C)OCO4)cc(OC)c1OC (configuration not stated) ?
active

###

- Test system: MCF7
- Test details: NCI tumour cell line growth inhibition, 48 h
Active and inactive are the calls of the source. Rule as the data show it: active = GI50 up to about 1.1 µM and inactive = higher.
Answer with one of the outcomes t = active, f = inactive

Answered examples (8):
1. C=C(Cl)C(Br)(CBr)CCC(Br)C(C)(C)Br (stereo not given); f
2. COC1C(N)C(OC2C(Oc3cccc4c(O)c5c(=O)oc6ccc(C)c7c(=O)oc(c34)c5c67)OC(C)C(O)C2(C)O)OC(C)C1O (stereo not given); t
3. O=C(Nn1c(-c2ccccc2)nc2ccccc2c1=O)c1ccc(CS)cc1; f
4. ClCc1ccc2ccc3ccc(CCl)nc3c2n1; t
5. CC1CC/C(=C\c2ccc(N(C)C)cc2)C2=C1C(c1ccc(N(C)C)cc1)NC(=S)N2 (stereo not given); f
6. C=C(C=O)c1c2c(nc3ccccc13)C(=O)c1ccccc1C2=O; t
7. COC1CC(OC(=O)c2ccccc2)C(OC(=O)c2ccccc2)C(C)O1 (stereo not given); f
8. C/C(=N\[N+](C)(C)C)c1ccc(C)c(C)c1; f

Name the outcome recorded for CC[P+](c1ccccc1)(N(C)C)N(C)C in the assay.
f

Any idea what this test logged for O[C@H]1[C@H]2[C@H](O)C[C@H](CCOCc3ccccc3)CN2C[C@H]1O ?
f

###

- Test system: UACC-257
- Test details: NCI tumour cell line growth inhibition, 48 h
Active and inactive are the calls of the source. Cut-off read from the data, not from the text of the source: active = GI50 up to about 1.1 µM and inactive = higher.
Below is a list of entries, each paired with its recorded GI50 value.

1) CC(=O)Nc1ccc(N2C(=O)/C(=C\c3cccc(Oc4ccccc4)c3)SC2c2ccccc2)cc1 (stereo not given); 35 µM (inactive)
2) COCCOc1cc(C)cc(/C=C(C)/C=C/C2=C(C)CCCC2(C)C)n1; 33.2 µM (inactive)
3) COc1ccc(C2=NNC(=O)c3ccccc3N2c2nc(-c3cccs3)nc3ccc(Br)cc23)cc1; 51.9 µM (inactive)

Value sought: GI50, system UACC-257, item NC(=S)c1cccc(C2Nc3ccccc3O2)c1 (stereo not given) . Result: 22.1 µM (inactive)

For the compound O=C(O)C1CC(c2ccccc2)=NN1c1ccccc1 (stereo not given) , the measured GI50 on UACC-257 was 51.9 µM (inactive)

Reported GI50 (UACC-257) for entry Cc1cc(S(=O)(=O)Nc2nnc3cc(C(F)(F)F)cc(C)n23)c(S)cc1Cl is > 100 µM (inactive)

###

- System: SNB-19
- Test details: NCI tumour cell line growth inhibition, 48 h
The source made the active and inactive calls. Cut-off read from the data, not from the text of the source: active = GI50 up to about 1.1 µM and inactive = higher.
In this exercise, the only acceptable responses are Y (active), N (inactive)

1. CC(=O)OCCOCNC(=S)N/N=C(\C)c1cnccn1; N
2. CC(=O)O[C@H]1C[C@H]2[C@@H](OC(C)=O)/C=C3\C[C@](C)(C(=O)[C@H](O)C(=C1C)C2(C)C)[C@@H](O)C[C@@H]3OC(=O)[C@H](O)[C@H](c1ccccc1)N(C)C; N

What is the recorded call for this compound in the test? CCCCN(CCCC)C(=O)C(=O)CC(=O)c1ccc(Br)cc1
N

Check the results log: what was the call for OCCCCCCOc1ccc(-c2cc(-c3ccccn3)nc(-c3ccccn3)c2)cc1 ?
Y

###

Item-by-item account of GI50
- Tested on: OVCAR-3
- Test details: NCI tumour cell line growth inhibition, 48 h
Calls of active or inactive are those of the source. No stated cut-off is given here; in the data, active = GI50 up to about 1.1 µM and inactive = higher.

Before answering, review these 5 worked examples.
1) Cn1c2ccccc2c(=O)c2c(O)cc3c(c21)C=CC1(CCCC1)O3; > 100 µM (inactive)
2) OC[C@H]1C[C@@H]2Cc3ccccc3N2N1; > 100 µM (inactive)
3) CC(=O)OCCOCNC(=S)N/N=C(\C)c1cnccn1; 23.7 µM (inactive)
4) C#CC(C)(C)OCCCCOc1cc(O)c2c(=O)c3ccccc3n(C)c2c1; > 100 µM (inactive)
5) Cc1ccc2nc(Cl)c(/C=N/N3C(=O)/C(=C/c4cccc([N+](=O)[O-])c4)N=C3c3ccccc3)cc2c1; 30.5 µM (inactive)

GI50 in this record for OCC12C3C4C5C3C1C5C42 (stereo not drawn) : > 100 µM (inactive)

COC1CC(OC(=O)c2ccccc2)C(OC(=O)c2ccccc2)C(C)O1 (stereo not drawn) has a reported GI50 of > 100 µM (inactive)

Kindly note the recorded GI50 for O=C1C=C2C(=NC34CCCCC3C(c3ccccc3)C3=C(c5ccccc5CC3)N24)c2ccccc21 (stereo not drawn) , which is > 10 µM (inactive)

# compound Cc1c(C=C(C#N)C#N)c(=O)n(C)c(=O)n1C ; its GI50 = > 100 µM (inactive)

###

- Tested on: TK-10
- Test details: NCI tumour cell line growth inhibition, 48 h
The source made the active and inactive calls. No stated cut-off is given here; in the data, active = GI50 up to about 1.1 µM and inactive = higher. Square brackets hold non-standard residues; d marks the D form. Peptide text beside a SMILES is read from it. pGlu = O=C1CC[C@@H](C(=O)O)N1; Thz = O=C(O)[C@@H]1CSCN1
Quantity name: GI50

These solved cases illustrate the format of a correct answer.
1. O=C1C=C(Nc2cccnc2)c2ccccc2/C1=N/O; > 100 µM (inactive)
2. N=C1c2ccccc2C(=O)c2c(NCCNCCO)ccc(O)c21; 11.9 µM (inactive)
3. FC(F)(F)c1ccccc1C1SCC2=Nc3ccccc3CN21 (stereo not given); 14.4 µM (inactive)
4. COC1C(O)C(C)OC(OC2C(Oc3cccc4c(O)c5c(=O)oc6ccc(C)c7c(=O)oc(c34)c5c67)OC(C)C3O[C@H](c4ccccc4)OC32)C1O (stereo not given in full); 1.06 µM (active)
5. CC1CC/C(=C\c2ccc(N(C)C)cc2)C2=C1C(c1ccc(N(C)C)cc1)NC(=S)N2 (stereo not given); > 100 µM (inactive)

The value of GI50 measured for the compound N#C/C(=C\c1cc(O)cc(O)c1)C(N)=O turned out to be > 100 µM (inactive)

// field: GI50; key: CCN(CC)CCNc1ccc2nnn3c4ccc(O)cc4c(=O)c1c23 ; value = 5.56 µM (inactive)

So for Cc1c2c(c(O)c3c(O)cccc13)C(=O)C1(O)C(=O)C(C(=O)NCNc3ccc(C(N)=O)cn3)=C(O)C(N(C)C)C1C2 (stereo not given) , the logged GI50 turned out to be 5.15 µM (inactive)

For Cc1cc(C)nc(/C(=N\NC(N)=O)C(=O)Nc2nc3ccc(C)cc3s2)c1 the compound record lists GI50 as > 100 µM (inactive)

Memo: O=C1CC[C@@H](C(=O)N2CSC[C@H]2C(=O)O)N1 [PIDOTIMOD] ([pGlu]-[Thz]-OH) , reported GI50: > 100 µM (inactive)
